src = patent US8912150B2

System Name: rabbit reticulocyte lysate
Method Notes: Translation inhibition in rabbit reticulocyte lysate system (luciferase mRNA)
Assay type: biochemical
Parameter: IC50 (µM)

> print(dat)
                            compound.smiles  parameter  result.comparator  reading
1  O=C(N[C@H](CO)[C@H](O)c1ccc([N+](=O)[O-])cc1)C(Cl)Cl       IC50                  >      100
2  COc1ccc(C[C@H]2NC[C@H](O)[C@H]2OC(C)=O)cc1       IC50                  =     0.19
